- targetOrSystem: CDK8 (Homo sapiens)
- Construct: purchased KinomeScan, a division of Ambit Biosciences
- Sequence (P49336 whole entry): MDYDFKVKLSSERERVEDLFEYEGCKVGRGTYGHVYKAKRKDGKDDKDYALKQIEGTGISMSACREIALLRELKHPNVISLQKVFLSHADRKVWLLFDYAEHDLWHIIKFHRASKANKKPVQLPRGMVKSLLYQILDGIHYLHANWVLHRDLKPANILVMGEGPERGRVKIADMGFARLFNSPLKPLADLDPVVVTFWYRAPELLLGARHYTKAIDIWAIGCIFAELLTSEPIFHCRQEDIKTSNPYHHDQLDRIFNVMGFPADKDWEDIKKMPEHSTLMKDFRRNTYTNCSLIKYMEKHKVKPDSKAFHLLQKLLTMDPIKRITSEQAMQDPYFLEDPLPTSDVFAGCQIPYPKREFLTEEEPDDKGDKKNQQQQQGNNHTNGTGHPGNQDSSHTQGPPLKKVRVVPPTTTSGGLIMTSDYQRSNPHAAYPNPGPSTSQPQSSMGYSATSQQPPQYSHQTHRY
- assayComment: KinomeScan competition binding assay
- condition: 10 μM compound
A collection of compounds and their measured POC ligand binding, CDK8
recordedMetric: POC ligand binding, CDK8 (POC)

- compound: "COc1ccc2ncnc(NCCc3ccccc3)c2c1 [compound 44]"
  recordedMetric: "POC ligand binding, CDK8"
  unit: "POC"
  assayValue: 24
- compound: "N#Cc1ccc2ncnc(NCc3ccc(Cl)cc3)c2c1 [compound 20]"
  recordedMetric: "POC ligand binding, CDK8"
  unit: "POC"
  assayValue: 0.15
- compound: "CC(C)CNc1ncnc2ccc(C(F)(F)F)cc12 [compound 45]"
  recordedMetric: "POC ligand binding, CDK8"
  unit: "POC"
  assayValue: 37
- compound: "CCCNc1ncnc2ccc(N3CCOCC3)cc12 [compound 46]"
  recordedMetric: "POC ligand binding, CDK8"
  unit: "POC"
  assayValue: 100
- compound: "N#Cc1ccc2ncnc(NCCc3ccc4ccccc4c3)c2c1 [compound 26]"
  recordedMetric: "POC ligand binding, CDK8"
  unit: "POC"
  assayValue: 0

---

The entries below are paired with their reported POC ligand binding, FLT3 (D835Y).
- targetOrSystem: FLT3 (D835Y) (Homo sapiens, UniProt P36888, D835Y)
- Construct: purchased KinomeScan, a division of Ambit Biosciences
- Sequence (P36888 27-993 D835Y): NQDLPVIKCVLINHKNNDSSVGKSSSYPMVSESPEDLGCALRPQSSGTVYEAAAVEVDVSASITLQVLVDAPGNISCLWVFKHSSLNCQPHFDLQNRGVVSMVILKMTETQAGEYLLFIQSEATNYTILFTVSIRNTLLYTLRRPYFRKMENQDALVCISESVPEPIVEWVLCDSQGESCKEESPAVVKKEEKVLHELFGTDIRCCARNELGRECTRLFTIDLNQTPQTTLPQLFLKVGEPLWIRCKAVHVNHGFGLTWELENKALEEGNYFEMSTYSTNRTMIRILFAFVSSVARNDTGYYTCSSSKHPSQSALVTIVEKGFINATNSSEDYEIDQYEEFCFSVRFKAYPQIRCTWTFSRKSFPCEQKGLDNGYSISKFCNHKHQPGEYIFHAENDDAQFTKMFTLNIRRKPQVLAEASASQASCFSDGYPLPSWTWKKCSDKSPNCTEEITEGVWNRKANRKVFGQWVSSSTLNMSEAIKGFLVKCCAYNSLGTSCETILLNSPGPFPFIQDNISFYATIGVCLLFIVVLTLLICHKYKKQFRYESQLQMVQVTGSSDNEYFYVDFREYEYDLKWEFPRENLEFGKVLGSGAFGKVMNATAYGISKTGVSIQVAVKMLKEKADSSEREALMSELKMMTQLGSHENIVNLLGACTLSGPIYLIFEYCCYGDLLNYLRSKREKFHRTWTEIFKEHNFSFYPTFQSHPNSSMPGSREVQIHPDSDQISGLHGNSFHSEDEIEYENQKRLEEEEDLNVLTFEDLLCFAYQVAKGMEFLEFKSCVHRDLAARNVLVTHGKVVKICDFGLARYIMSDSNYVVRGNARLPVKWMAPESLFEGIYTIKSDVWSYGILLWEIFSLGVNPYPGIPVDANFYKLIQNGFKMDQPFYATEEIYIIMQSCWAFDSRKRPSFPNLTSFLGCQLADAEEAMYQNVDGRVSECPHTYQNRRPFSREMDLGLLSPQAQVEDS
- assayComment: KinomeScan competition binding assay
- condition: 10 μM compound

- structureNotation: "N#Cc1ccc2ncnc(NCCc3ccccc3)c2c1"
  POC ligand binding, FLT3 (D835Y) / POC: 19
- structureNotation: "CC(C)CNc1ncnc2ccc(C(F)(F)F)cc12"
  POC ligand binding, FLT3 (D835Y) / POC: 4.7
- structureNotation: "N#Cc1ccc2ncnc(NCCc3ccc4ccccc4c3)c2c1"
  POC ligand binding, FLT3 (D835Y) / POC: 55
- structureNotation: "N#Cc1ccc2ncnc(NCc3ccc(Cl)cc3)c2c1"
  POC ligand binding, FLT3 (D835Y) / POC: 69
- structureNotation: "COc1ccc2ncnc(NCCc3ccccc3)c2c1"
  POC ligand binding, FLT3 (D835Y) / POC: 55
- structureNotation: "CCCNc1ncnc2ccc(N3CCOCC3)cc12"
  POC ligand binding, FLT3 (D835Y) / POC: 19

---

- targetOrSystem: PIP5K2C (Homo sapiens, UniProt Q8TBX8)
- Construct: purchased KinomeScan, a division of Ambit Biosciences
- Sequence (Q8TBX8 whole entry): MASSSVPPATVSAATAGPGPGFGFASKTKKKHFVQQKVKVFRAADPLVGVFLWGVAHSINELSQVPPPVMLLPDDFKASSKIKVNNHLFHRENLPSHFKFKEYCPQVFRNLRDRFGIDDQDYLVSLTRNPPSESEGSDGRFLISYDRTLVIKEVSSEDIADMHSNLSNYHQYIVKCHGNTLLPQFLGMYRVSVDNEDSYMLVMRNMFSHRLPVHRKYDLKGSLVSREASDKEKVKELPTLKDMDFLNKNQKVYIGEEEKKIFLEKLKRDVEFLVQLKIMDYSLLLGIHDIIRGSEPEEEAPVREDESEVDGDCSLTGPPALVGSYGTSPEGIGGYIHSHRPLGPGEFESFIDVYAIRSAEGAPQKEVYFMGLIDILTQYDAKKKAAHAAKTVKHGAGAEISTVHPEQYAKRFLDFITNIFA
- assayComment: KinomeScan competition binding assay
- condition: 10 μM compound
- From the text: This similarity led us to test SNX14 for the ability to inhibit 285 kinases, using the services of KinaseProfiler of Millipore Corporation (285 kinases). […] The KINOMEscan assay has been described in detail in Fabian et al., Nat. Biotechnol. 23: 329 (2005) and Karaman et al., Nat. Biotechnol. 26: 127 (2008). The KinomeScan assay is based on a competition binding assay that quantitatively measures the ability of a compound to compete with an immobilized, ATP site directed ligand. […]
Let's look at some molecules and their measured POC ligand binding, PIP5K2C.
recordedMetric: POC ligand binding, PIP5K2C (POC)

- molecule: "CC(C)CNc1ncnc2ccc(C(F)(F)F)cc12 [compound 45]"
  recordedMetric: "POC ligand binding, PIP5K2C"
  assayValue: 60
- molecule: "COc1ccc2ncnc(NCCc3ccccc3)c2c1 [compound 44]"
  recordedMetric: "POC ligand binding, PIP5K2C"
  assayValue: 59
- molecule: "N#Cc1ccc2ncnc(NCc3ccc(Cl)cc3)c2c1 [compound 20]"
  recordedMetric: "POC ligand binding, PIP5K2C"
  assayValue: 2.4
- molecule: "N#Cc1ccc2ncnc(NCCc3ccc4ccccc4c3)c2c1 [compound 26]"
  recordedMetric: "POC ligand binding, PIP5K2C"
  assayValue: 39
- molecule: "N#Cc1ccc2ncnc(NCCc3ccccc3)c2c1 [compound 1]"
  recordedMetric: "POC ligand binding, PIP5K2C"
  assayValue: 1.2
- molecule: "CCCNc1ncnc2ccc(N3CCOCC3)cc12 [compound 46]"
  recordedMetric: "POC ligand binding, PIP5K2C"
  assayValue: 61

---

- targetOrSystem: EGFR (G719C) (Homo sapiens, UniProt P00533, G719C)
- Construct: purchased KinomeScan, a division of Ambit Biosciences
- assayComment: KinomeScan competition binding assay
- condition: 10 μM compound
recordedMetric: POC ligand binding, EGFR (G719C) (POC)

- structureNotation: "N#Cc1ccc2ncnc(NCCc3ccccc3)c2c1"
  recordedMetric: "POC ligand binding, EGFR (G719C)"
  assayValue: 13
- structureNotation: "N#Cc1ccc2ncnc(NCCc3ccc4ccccc4c3)c2c1"
  recordedMetric: "POC ligand binding, EGFR (G719C)"
  assayValue: 68
- structureNotation: "COc1ccc2ncnc(NCCc3ccccc3)c2c1"
  recordedMetric: "POC ligand binding, EGFR (G719C)"
  assayValue: 0.85
- structureNotation: "CCCNc1ncnc2ccc(N3CCOCC3)cc12"
  recordedMetric: "POC ligand binding, EGFR (G719C)"
  assayValue: 61
- structureNotation: "CC(C)CNc1ncnc2ccc(C(F)(F)F)cc12"
  recordedMetric: "POC ligand binding, EGFR (G719C)"
  assayValue: 59
- structureNotation: "N#Cc1ccc2ncnc(NCc3ccc(Cl)cc3)c2c1"
  recordedMetric: "POC ligand binding, EGFR (G719C)"
  assayValue: 34

---

Here the recorded POC ligand binding, MAPKAPK5 is given for each entry.
- targetOrSystem: MAPKAPK5 (Homo sapiens)
- Construct: purchased KinomeScan, a division of Ambit Biosciences
- Sequence (Q8IW41 1-473): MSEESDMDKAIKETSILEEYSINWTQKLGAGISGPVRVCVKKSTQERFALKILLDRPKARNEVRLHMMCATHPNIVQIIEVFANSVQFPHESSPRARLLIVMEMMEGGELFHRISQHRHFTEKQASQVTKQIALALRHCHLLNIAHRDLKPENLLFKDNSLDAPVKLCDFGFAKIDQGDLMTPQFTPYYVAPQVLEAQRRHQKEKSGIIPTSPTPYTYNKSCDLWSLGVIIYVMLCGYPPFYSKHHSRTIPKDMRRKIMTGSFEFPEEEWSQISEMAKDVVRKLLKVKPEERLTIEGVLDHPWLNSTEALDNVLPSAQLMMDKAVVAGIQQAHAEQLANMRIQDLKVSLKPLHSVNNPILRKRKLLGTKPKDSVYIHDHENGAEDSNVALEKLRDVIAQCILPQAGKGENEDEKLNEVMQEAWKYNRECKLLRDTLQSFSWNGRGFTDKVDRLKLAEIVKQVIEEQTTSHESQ
- assayComment: KinomeScan competition binding assay
- condition: 10 μM compound

- structureNotation: "N#Cc1ccc2ncnc(NCc3ccc(Cl)cc3)c2c1"
  unit: "POC"
  POC ligand binding, MAPKAPK5: 92
- structureNotation: "CC(C)CNc1ncnc2ccc(C(F)(F)F)cc12"
  unit: "POC"
  POC ligand binding, MAPKAPK5: 100
- structureNotation: "N#Cc1ccc2ncnc(NCCc3ccccc3)c2c1"
  unit: "POC"
  POC ligand binding, MAPKAPK5: 15
- structureNotation: "CCCNc1ncnc2ccc(N3CCOCC3)cc12"
  unit: "POC"
  POC ligand binding, MAPKAPK5: 91
- structureNotation: "N#Cc1ccc2ncnc(NCCc3ccc4ccccc4c3)c2c1"
  unit: "POC"
  POC ligand binding, MAPKAPK5: 100
- structureNotation: "COc1ccc2ncnc(NCCc3ccccc3)c2c1"
  unit: "POC"
  POC ligand binding, MAPKAPK5: 94
